Where do the numbers come from? From ChEMBL document CHEMBL3860032.

- TESTED_TARGET: Proteasome Macropain subunit MB1 (Homo sapiens) (UniProt P28074)
- Sequence (whole entry): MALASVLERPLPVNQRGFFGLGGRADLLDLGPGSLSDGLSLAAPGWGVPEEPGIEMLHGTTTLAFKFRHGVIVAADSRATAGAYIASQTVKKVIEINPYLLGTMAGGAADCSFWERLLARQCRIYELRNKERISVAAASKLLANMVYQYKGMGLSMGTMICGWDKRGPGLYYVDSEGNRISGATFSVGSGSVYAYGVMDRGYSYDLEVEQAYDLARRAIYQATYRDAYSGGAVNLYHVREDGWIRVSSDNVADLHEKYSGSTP
- ASSAY_INFO: Inhibition of chymotrypsin-like activity of human 20S proteasome at 50 uM using Suc-Leu-Leu-Val-Tyr-AMC as substrate measured for 10 mins by fluorescence assay relative to control
Non-standard residues stand in square brackets, D forms with d. Residues, ends and D or L forms follow the SMILES beside them. *: point of attachment. Cbz = O=C(OCc1ccccc1)*; Nva = CCC[CH](N)C(=O)O
# inhibition per entry
QUANTITY: inhibition

>>> df
                                    compound                             tested_target  value
 0  CCCC(NC(=O)OCc1ccccc1)C(=O)NC(Cc1ccc(O)cc1)C(N)=O (stereo not given) (Cbz-[Nva]-Tyr-NH2; configuration not given here)  Proteasome Macropain subunit MB1 (Homo sapiens) (UniProt P28074)    17%
 1  CC(C)C[C@H](NC(=O)OCc1ccccc1)C(=O)N[C@@H](Cc1ccc(O)cc1)C(N)=O (Cbz-Leu-Tyr-NH2)  Proteasome Macropain subunit MB1 (Homo sapiens) (UniProt P28074)    17%
 2  CC(C)[C@H](NC(=O)[C@H](Cc1ccc(O)cc1)NC(=O)OCc1ccccc1)C(=O)O  Proteasome Macropain subunit MB1 (Homo sapiens) (UniProt P28074)    21%
 3  NC(CCC(=O)OCc1ccccc1)C(=O)OCc1ccccc1 (stereo not given)  Proteasome Macropain subunit MB1 (Homo sapiens) (UniProt P28074)    34%
 4  CC(C)(C)OC(=O)Cn1ncn(NC(=O)Cc2ccccc2)c1=O  Proteasome Macropain subunit MB1 (Homo sapiens) (UniProt P28074)    49%
 5  CC(=O)NC(Cc1ccccc1)C(=O)Nc1ccc(C)cc1 (stereo not given)  Proteasome Macropain subunit MB1 (Homo sapiens) (UniProt P28074)    43%
 6  CC(C)[C@H](NC(=O)[C@H](Cc1ccc(O)cc1)NC(=O)OCc1ccccc1)C(N)=O (Cbz-Tyr-Val-NH2)  Proteasome Macropain subunit MB1 (Homo sapiens) (UniProt P28074)    11%
 7  NC(Cc1c[nH]c2ccccc12)C(=O)OCc1ccccc1 (stereo not given)  Proteasome Macropain subunit MB1 (Homo sapiens) (UniProt P28074)    54%
 8  CNC(Cc1ccc(OCc2ccccc2)cc1)C(=O)NC(CO)CC(C)C (stereo not given)  Proteasome Macropain subunit MB1 (Homo sapiens) (UniProt P28074)    33%
 9  CC(C)(C)Oc1ccc(C[C@@H](NC(=O)OCC2c3ccccc3-c3ccccc32)C(=O)O)cc1  Proteasome Macropain subunit MB1 (Homo sapiens) (UniProt P28074)    59%
10   NS(=O)(=O)c1ccc(NC(=O)/C=C/c2ccccc2)cc1  Proteasome Macropain subunit MB1 (Homo sapiens) (UniProt P28074)    33%
11  C[C@H](NC(=O)OCc1ccccc1)C(=O)N[C@@H](Cc1ccccc1)C(N)=O  Proteasome Macropain subunit MB1 (Homo sapiens) (UniProt P28074)    24%
12  NC(=O)C[C@H](NC(=O)OCC1c2ccccc2-c2ccccc21)C(=O)O  Proteasome Macropain subunit MB1 (Homo sapiens) (UniProt P28074)    33%
13  COC(=O)[C@H](C)NC(=O)[C@H](Cc1ccccc1)NC(=O)[C@H](C)NC(=O)OCc1ccccc1 (Cbz-Ala-Phe-Ala-OMe)  Proteasome Macropain subunit MB1 (Homo sapiens) (UniProt P28074)    24%
14         O=C(CC(=O)c1cccnc1)NC(=O)c1ccccc1  Proteasome Macropain subunit MB1 (Homo sapiens) (UniProt P28074)    43%

---

// reported inhibition for each item listed
- TESTED_TARGET: Proteasome Macropain subunit (Homo sapiens)
- ASSAY_INFO: Inhibition of trypsin-like activity of human 20S proteasome at 50 uM using Boc-Leu-Arg-Arg-AMC as substrate measured for 10 mins by fluorescence assay relative to control
Residues, ends and D or L forms follow the SMILES beside them. *: point of attachment. Cbz = O=C(OCc1ccccc1)*
QUANTITY: inhibition (%)

In [3]: df
Out[3]:
                                   molecule  readout_unit  value
0   O=C(O)c1ccc(NCn2c(=S)[nH]c3ccccc32)cc1O             %      1
1  COC(=O)[C@H](Cc1ccccc1)NC(=O)[C@H](Cc1ccccc1)NC(=O)[C@H](Cc1ccccc1)NC(=O)OCc1ccccc1 (Cbz-Phe-Phe-Phe-OMe)             %     18
2  NC(=O)C(NC(=O)c1ccccc1)SCc1ccccc1 (stereo unspecified)             %      3
3  O=C(O)CCCC(=O)NC1CC2c3ccccc3C1c1ccccc12 (stereo unspecified)             %      7
4  O=C(Nc1ccc2nc(O)cc(C(=O)O)c2c1)Oc1ccccc1             %     74
5  CC(C)[C@H](NC(=O)[C@H](Cc1ccc(O)cc1)NC(=O)OCc1ccccc1)C(N)=O (Cbz-Tyr-Val-NH2)             %     23

---

- TESTED_TARGET: Proteasome Macropain subunit MB1 (Homo sapiens) (UniProt P28074)
- ASSAY_INFO: Inhibition of chymotrypsin-like activity of human 20S proteasome at 50 uM using Suc-Leu-Leu-Val-Tyr-AMC as substrate measured for 10 mins by fluorescence assay relative to control
Non-standard residues stand in square brackets, D forms with d. Residues, ends and D or L forms follow the SMILES beside them. ξ: configuration not given here. *: point of attachment. Cbz = O=C(OCc1ccccc1)*; ξL = CC(C)CC(N)C(=O)O
inhibition overview
QUANTITY: inhibition (%)

                                   compound  value
0  CC(NC(=O)OCc1ccccc1)C(=O)NC(Cc1ccc(O)cc1)C(=O)OCc1ccccc1 (stereo not given)     22
1  O=C(Nc1ccc2nc(O)cc(C(=O)O)c2c1)Oc1ccccc1     48
2  O=C(CNC(=O)c1ccccc1)OC(C(=O)O)c1ccc(F)cc1 (stereo not given)     12
3  COC(=O)C(CC(C)C)NC(=O)C(Cc1ccc(O)cc1)N(C(=O)OCc1ccccc1)C(=O)OCc1ccccc1 (stereo not given)     46
4  CC(C)CC(NC(=O)OCc1ccccc1)C(=O)N[C@@H](Cc1ccc(O)cc1)C(=O)O (stereo not given in full) (Cbz-[ξL]-Tyr-OH)      8
5        CCOC(=O)C(NC(=O)Cc1ccccc1)C(=O)OCC     49
6  O=C(O)CCCC(=O)NC1CC2c3ccccc3C1c1ccccc12 (stereo not given)     31
7  NC(=O)C(NC(=O)c1ccccc1)SCc1ccccc1 (stereo not given)     21
8  CC(Cc1ccccc1)NC(=O)C(O)C(O)C(O)C(O)CCO (stereo not given)     36
9         O=C(Nc1ccccc1C(=O)NCC1CC1)c1cccs1     60

---

- TESTED_TARGET: Proteasome Macropain subunit MB1 (Homo sapiens) (UniProt P28074)
- ASSAY_INFO: Time-dependent inhibition of chymotrypsin-like activity of human 20S proteasome using Suc-Leu-Leu-Val-Tyr-AMC as substrate at 10 to 100 uM by fluorescence assay
Calls of active or inactive are those of the source. No cut-off for these calls is given here. Residues, ends and D or L forms follow the SMILES beside them. *: point of attachment. Cbz = O=C(OCc1ccccc1)*; NHNH2 = NN*
QUANTITY: TDI

>>> print(df.to_string())
                                   compound   value
0  COC(=O)[C@H](Cc1ccc(O)cc1)NC(=O)[C@H](CC(C)C)NC(=O)[C@H](CO)NC(=O)OCc1ccccc1 (Cbz-Ser-Leu-Tyr-OMe)  Active
1  COC(=O)[C@H](CC(C)C)NC(=O)[C@H](Cc1ccccc1)NC(=O)[C@H](CO)NC(=O)OCc1ccccc1 (Cbz-Ser-Phe-Leu-OMe)  Active
2  CC(C)C[C@H](NC(=O)[C@H](CO)NC(=O)OCc1ccccc1)C(=O)N[C@@H](Cc1ccc(O)cc1)C(=O)NN (Cbz-Ser-Leu-Tyr-NHNH2)  Active
3  COC(=O)[C@H](CO)NC(=O)[C@H](CC(C)C)NC(=O)[C@H](CC(C)C)NC(=O)OCc1ccccc1 (Cbz-Leu-Leu-Ser-OMe)  Active
